Every entry's value here was drawn from paper PMC10410440.

assay: Plasma pharmacokinetics of SHR9146 in mice (LC-MS/MS, non-compartmental analysis); type: in vivo, ICR mice; details: both sexes, ICR, mouse, plasma, po, 80 mg/kg, 80 mg/kg i.g. single dose; all mice (Totol, 3 male + 3 female); plasma; read-out: Tmax

{"Smiles Repr": "OCCn1cc(-c2ccc(N3CCC([C@H]4c5c(F)cccc5-c5cncn54)CC3)cc2)cn1", "Tmax (h)": 1.5}

---

assay: Plasma pharmacokinetics of SHR9146 in mice (LC-MS/MS, non-compartmental analysis); format: in vivo, ICR mice; details: ICR, mouse, po; 20 mg/kg i.g. single dose; female mice; plasma; read-out: MRT0-∞
Experimental Endpoint: MRT inf

{"Compound": "OCCn1cc(-c2ccc(N3CCC([C@H]4c5c(F)cccc5-c5cncn54)CC3)cc2)cn1 [SHR9146]", "Experimental Endpoint": "MRT inf", "Value Observed": "1.68 h"}

---

assay: Tissue distribution of SHR9146 in mice after oral gavage of 40 mg/kg; format: in vivo, ICR mice; details: female, ICR, mouse, kidney, po, 40 mg/kg, female, 1 h, 40 mg/kg oral gavage, individual mice; read-out: SHR9146 concentration in Kidney

{"Smiles Repr": "OCCn1cc(-c2ccc(N3CCC([C@H]4c5c(F)cccc5-c5cncn54)CC3)cc2)cn1", "concentration at 1 h, ng/g": 13100}

---

assay: Tissue distribution of SHR9146 in mice after oral gavage of 40 mg/kg; type: in vivo, ICR mice; conditions: male, ICR, mouse, adrenal gland, po, 40 mg/kg, male, 1 h, 40 mg/kg oral gavage, Mean (n=3); read-out: SHR9146 concentration in Adrenal gland
Experimental Endpoint: concentration at 1 h (ng/g)

{"Compound": "OCCn1cc(-c2ccc(N3CCC([C@H]4c5c(F)cccc5-c5cncn54)CC3)cc2)cn1 [SHR9146]", "Value Observed": 23600}

---

experiment: Plasma pharmacokinetics of SHR9146 in mice (LC-MS/MS, non-compartmental analysis); assay type: in vivo, ICR mice; conditions: both sexes, ICR, mouse, plasma, po, 80 mg/kg, single oral doses 20, 40, 80 mg/kg; mice; read-out: absolute (oral) bioavailability, mean over single oral doses

{"Smiles Repr": "OCCn1cc(-c2ccc(N3CCC([C@H]4c5c(F)cccc5-c5cncn54)CC3)cc2)cn1", "bioavailability": "54.2%"}

---

experiment: Plasma pharmacokinetics of SHR9146 in mice (LC-MS/MS, non-compartmental analysis); assay type: in vivo, ICR mice; details: both sexes, ICR, mouse, plasma, oral, 20 mg/kg, 20 mg/kg i.g. bid, 7 days; 7th day, 8 h; read-out: plasma drug concentration, mean (n=6)

{"Compound": "OCCn1cc(-c2ccc(N3CCC([C@H]4c5c(F)cccc5-c5cncn54)CC3)cc2)cn1 [SHR9146]", "concentration at 8 h / µg/mL": 0.058}

---

assay: Tissue distribution of SHR9146 in mice after oral gavage of 40 mg/kg; assay type: in vivo, ICR mice; details: female, ICR, mouse, stomach, po, 40 mg/kg, female, 6 h, 40 mg/kg oral gavage, Mean (n=3); read-out: SHR9146 concentration in Stomach

{"Smiles Repr": "OCCn1cc(-c2ccc(N3CCC([C@H]4c5c(F)cccc5-c5cncn54)CC3)cc2)cn1", "concentration at 6 h": "3870 ng/g"}

---

experiment: Tissue distribution of SHR9146 in mice after oral gavage of 40 mg/kg; assay type: in vivo, ICR mice; conditions: female, ICR, mouse, heart, po, 40 mg/kg, female, 3 h, 40 mg/kg oral gavage, Mean (n=3); read-out: SHR9146 concentration in Heart
Experimental Endpoint: concentration at 3 h (ng/g)

{"Compound": "OCCn1cc(-c2ccc(N3CCC([C@H]4c5c(F)cccc5-c5cncn54)CC3)cc2)cn1 [SHR9146]", "Experimental Endpoint": "concentration at 3 h", "Value Observed": 7040}

---

experiment: Plasma pharmacokinetics of SHR9146 in mice (LC-MS/MS, non-compartmental analysis); assay type: in vivo, ICR mice; settings: male, ICR, mouse, plasma, po, 80 mg/kg, 80 mg/kg i.g. single dose; male mice

{"Molecule": "OCCn1cc(-c2ccc(N3CCC([C@H]4c5c(F)cccc5-c5cncn54)CC3)cc2)cn1 [SHR9146]", "Units": "ng·h/mL", "AUC(0-inf)": 75900}

---

test: Tissue distribution of SHR9146 in mice after oral gavage of 40 mg/kg; assay type: in vivo, ICR mice; conditions: male, ICR, mouse, brain, po, 40 mg/kg, male, 1 h, 40 mg/kg oral gavage, individual mice; read-out: SHR9146 concentration in Brain

{"Compound": "OCCn1cc(-c2ccc(N3CCC([C@H]4c5c(F)cccc5-c5cncn54)CC3)cc2)cn1 [SHR9146]", "concentration at 1 h (ng/g)": 2280}

---

test: Plasma pharmacokinetics of SHR9146 in mice (LC-MS/MS, non-compartmental analysis); type: in vivo, ICR mice; conditions: female, ICR, mouse, plasma, po, 40 mg/kg, 40 mg/kg i.g. single dose; female mice; plasma; read-out: Cmax

{"Smiles Repr": "OCCn1cc(-c2ccc(N3CCC([C@H]4c5c(F)cccc5-c5cncn54)CC3)cc2)cn1", "Cmax, ng/mL": 9880}

---

experiment: Tissue distribution of SHR9146 in mice after oral gavage of 40 mg/kg; type: in vivo, ICR mice; details: female, ICR, mouse, liver, po, 40 mg/kg, female, 1 h, 40 mg/kg oral gavage, Mean (n=3); read-out: SHR9146 concentration in Liver

{"Smiles Repr": "OCCn1cc(-c2ccc(N3CCC([C@H]4c5c(F)cccc5-c5cncn54)CC3)cc2)cn1", "Units": "ng/g", "concentration at 1 h": 24300}

---

assay: Plasma pharmacokinetics of SHR9146 in mice (LC-MS/MS, non-compartmental analysis); assay type: in vivo, ICR mice; conditions: both sexes, ICR, mouse, plasma, oral, 20 mg/kg, 20 mg/kg i.g. bid, 7 days; 7th day, 3 h; read-out: plasma drug concentration, mean (n=6)

{"Smiles Repr": "OCCn1cc(-c2ccc(N3CCC([C@H]4c5c(F)cccc5-c5cncn54)CC3)cc2)cn1", "concentration at 3 h, ng/mL": 3170}

---

assay: Tissue distribution of SHR9146 in mice after oral gavage of 40 mg/kg; format: in vivo, ICR mice; conditions: female, ICR, mouse, skeletal muscle, po, 40 mg/kg, female, 1 h, 40 mg/kg oral gavage, Mean (n=3); read-out: SHR9146 concentration in Skeletal muscle
Experimental Endpoint: concentration at 1 h (ng/g)

{"Molecule": "OCCn1cc(-c2ccc(N3CCC([C@H]4c5c(F)cccc5-c5cncn54)CC3)cc2)cn1 [SHR9146]", "Value Observed": 7800}

---

Assay: Tissue distribution of SHR9146 in mice after oral gavage of 40 mg/kg
Format: in vivo, ICR mice
Details: male, ICR, mouse, skin, po, 40 mg/kg, male, 6 h, 40 mg/kg oral gavage, Mean (n=3); read-out: SHR9146 concentration in Skin
Protocol: ICR mice with body weight 16–26 g were supplied by Shanghai Lingchang Biotechnology Co., Ltd. (animal breeding license number SCXK (Shanghai) 2013-0018) and housed at Shanghai Institute of Materia Medica, Chinese Academy of Sciences [animal use license number SYXK (Shanghai) 2015-0027]. The mice used in this study were fasted overnight for 12 h but had free access to water. Food was supplied 4 h post-dose. […]

{"Smiles Repr": "OCCn1cc(-c2ccc(N3CCC([C@H]4c5c(F)cccc5-c5cncn54)CC3)cc2)cn1", "Units": "ng/g", "concentration at 6 h": 113}

---

test: Plasma pharmacokinetics of SHR9146 in mice (LC-MS/MS, non-compartmental analysis); assay type: in vivo, ICR mice; details: both sexes, ICR, mouse, iv; 5 mg/kg i.v. single dose; all mice (Totol, 3 male + 3 female); plasma

{"Smiles Repr": "OCCn1cc(-c2ccc(N3CCC([C@H]4c5c(F)cccc5-c5cncn54)CC3)cc2)cn1", "clearance [mL/min/kg]": 12}

---

test: Plasma pharmacokinetics of SHR9146 in mice (LC-MS/MS, non-compartmental analysis); format: in vivo, ICR mice; conditions: both sexes, ICR, mouse, iv; 5 mg/kg i.v. single dose; all mice (Totol, 3 male + 3 female); plasma; read-out: Vd

{"Smiles Repr": "OCCn1cc(-c2ccc(N3CCC([C@H]4c5c(F)cccc5-c5cncn54)CC3)cc2)cn1", "Vd [L/kg]": 0.666}

---

assay: Tissue distribution of SHR9146 in mice after oral gavage of 40 mg/kg; type: in vivo, ICR mice; conditions: male, ICR, mouse, spleen, po, 40 mg/kg, male, 1 h, 40 mg/kg oral gavage, Mean (n=3); read-out: SHR9146 concentration in Spleen

{"Compound": "OCCn1cc(-c2ccc(N3CCC([C@H]4c5c(F)cccc5-c5cncn54)CC3)cc2)cn1 [SHR9146]", "concentration at 1 h / ng/g": 4840}
